Overview of reported pKi across a group of compounds:
- measured_on: UniProtKB P42866
- Sequence (P42866 whole entry): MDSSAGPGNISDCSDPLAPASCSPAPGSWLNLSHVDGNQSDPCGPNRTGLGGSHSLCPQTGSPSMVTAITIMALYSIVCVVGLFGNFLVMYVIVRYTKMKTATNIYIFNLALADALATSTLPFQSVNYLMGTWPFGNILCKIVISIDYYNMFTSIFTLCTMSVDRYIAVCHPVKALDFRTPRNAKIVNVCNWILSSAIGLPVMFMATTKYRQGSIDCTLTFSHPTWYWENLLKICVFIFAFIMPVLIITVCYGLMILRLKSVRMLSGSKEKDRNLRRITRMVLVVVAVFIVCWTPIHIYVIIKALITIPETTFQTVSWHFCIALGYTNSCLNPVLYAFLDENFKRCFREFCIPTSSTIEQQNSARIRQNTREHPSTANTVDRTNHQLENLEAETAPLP
- experiment_notes: Competition binding against 125I-IBNtxA, MOR-1 CHO membranes
- Design: expressed in transfected cells
- condition_info: vs 125I-IBNtxA (0.1 nM), cloned mouse receptor, ± SEM, read-out: Binding Data-Ki MOR-1
Keep it numeric: pKi is minus log10 of the concentration in mol/L.

// solved cases for pKi follow
{"smiles_code": "Cc1ccc(OCCCCCCc2c(C)n[nH]c2C)cc1", "pKi": 5.76}
{"smiles_code": "Cc1ccccc1OCCCCCN1CCCCC1", "pKi": 6.07}
{"smiles_code": "Cc1ccccc1OCCCCCCc1c(C)n[nH]c1C", "pKi": 5.49}

Exercise: Return pKi measured with UniProtKB P42866 given this compound: Cc1ccccc1OCCCCCN1CCOCC1
Solution: 4.95
